target: β-adrenergic receptor (Cavia porcellus); construct: isolated guinea pig atria preparation; from tissue; host or cells: isolated guinea pig atria; experiment: β-adrenergic receptor blocking activity in vitro, isolated guinea pig atria, isoproterenol agonist; format: cell-based; settings: read-out: pA2 β (converted)
# Kb annotations
// units = nM; emit number, no label

These solved cases illustrate the format of a correct answer.
Cl.NC(=O)c1cc(C(O)CN2CCN(c3cccc(C(F)(F)F)c3)CC2)ccc1O (stereo not drawn) [Compound 3, monohydrochloride]
126
CCOc1ccc(C(O)CN2CCN(c3ccccc3)CC2)cc1C(N)=O.Cl (stereo not drawn) [Compound 13, monohydrochloride]
5370
COC(=O)c1cc(C(O)CN2CCN(c3ccccc3C)CC2)ccc1O.Cl (stereo not drawn) [Compound 1, hydrochloride]
162

Input Cl.NC(=O)c1cc(C(O)CN2CCN(c3ccccn3)CC2)ccc1O.O (stereo not drawn) [Compound 8, monohydrochloride hydrate] . Output Kb: 4270

For reference, reported Kb for Cc1ccccc1N1CCN(CC(O)c2ccc(O)c(-c3nnn[nH]3)c2)CC1.Cl.O (stereo not drawn) [Compound 14, Monohydrochloride Monohydrate] stands at 724

CNC(=O)c1cc(C(O)CN2CCN(c3ccc(OC)cc3)CC2)ccc1O.Cl.O (stereo not drawn) [Compound 9, monohydrochloride hydrate] has a reported Kb of 6760

====

tested on: spontaneously hypertensive rats (SHR); experiment: antihypertensive activity in spontaneously hypertensive rats, systolic blood pressure; assay type: in vivo, rat; details: 50 mg/kg per os, 1 hour
Entries and their Fall in Blood Pressure After: 1 hour
Include the unit after the number when you answer.

Cc1ccccc1N1CCN(CC(O)c2ccc(O)c(C(N)=O)c2)CC1.Cl (stereo not drawn)
48 mm Hg

Looking up Cl.NC(=O)c1cc(C(O)CN2CCN(c3ccc(Cl)cc3)CC2)ccc1O.O (stereo not drawn) , I found its Fall in Blood Pressure After: 1 hour recorded as 49 mm Hg

CNC(=O)c1cc(C(O)CN2CCN(c3ccccc3OC)CC2)ccc1O.Cl.O (stereo not drawn) has a reported Fall in Blood Pressure After: 1 hour of 44 mm Hg

====

tested on: spontaneously hypertensive rats (SHR); assay: antihypertensive activity in spontaneously hypertensive rats, systolic blood pressure; format: in vivo, rat; details: 50 mg/kg per os, 1 hour
readoutLabel: Fall in Blood Pressure After: 1 hour (mm Hg)
Write it as a number; the unit mm Hg goes unstated.

Example entries and their recorded answers appear below.
COc1ccccc1N1CCN(CC(O)c2ccc(O)c(C(N)=O)c2)CC1.Cl (stereo not shown)
45
Cc1ccccc1N1CCN(CC(O)c2ccc(O)c(-c3nnn[nH]3)c2)CC1.Cl.O (stereo not shown)
48
COc1ccc(C(O)CN2CCN(c3ccccc3)CC2)cc1C(N)=O.Cl (stereo not shown)
33

Kindly review the next molecule as well.
Form field Fall in Blood Pressure After: 1 hour, entry Cc1ccccc1N1CCN(CC(O)c2ccc(O)c(C(=O)NCC(C)(C)C)c2)CC1.Cl (stereo not shown) : 41

====

molecular target: β-adrenergic receptor (Cavia porcellus, UniProt H0W3H1); construct: isolated guinea pig atria preparation; from tissue; host or cells: isolated guinea pig atria; test: β-adrenergic receptor blocking activity in vitro, isolated guinea pig atria, isoproterenol agonist; format: cell-based; conditions: read-out: pA2 β (converted)
Sequence (H0W3H1 1-470): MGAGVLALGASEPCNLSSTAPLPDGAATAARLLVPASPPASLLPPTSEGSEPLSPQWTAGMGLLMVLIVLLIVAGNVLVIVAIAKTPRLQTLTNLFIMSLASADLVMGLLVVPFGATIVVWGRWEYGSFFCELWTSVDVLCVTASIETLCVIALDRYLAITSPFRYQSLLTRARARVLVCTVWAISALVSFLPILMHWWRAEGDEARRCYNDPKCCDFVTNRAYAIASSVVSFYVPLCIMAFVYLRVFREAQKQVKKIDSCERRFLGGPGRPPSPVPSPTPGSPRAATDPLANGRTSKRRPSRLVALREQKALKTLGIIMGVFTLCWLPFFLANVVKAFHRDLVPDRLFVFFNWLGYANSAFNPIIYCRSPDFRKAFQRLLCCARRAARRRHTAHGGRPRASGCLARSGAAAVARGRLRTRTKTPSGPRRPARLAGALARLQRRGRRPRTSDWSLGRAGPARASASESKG
Entries and their measured Kb follow.
// return numeric value only (unit: nM, not printed)

Below, 4 molecules whose answers are already recorded.
COc1ccccc1N1CCN(CC(O)c2ccc(O)c(C(N)=O)c2)CC1.Cl (stereo not drawn) [Compound 7, monohydrochloride]
363
Cc1ccccc1N1CCN(CC(O)c2ccc(O)c(C(N)=O)c2)CC1.Cl (stereo not drawn) [Compound 2, monohydrochloride]
200
Cc1ccccc1N1CCN(CC(O)c2ccc(O)c(C(=O)NCC(C)(C)C)c2)CC1.Cl (stereo not drawn) [Compound 11, monohydrochloride]
468
COc1ccc(N2CCN(CC(O)c3ccc(O)c(C(N)=O)c3)CC2)cc1.Cl.Cl (stereo not drawn) [Compound 4, dihydrochloride]
1450

Please turn your attention to the following entry.
So for Cl.NC(=O)c1cc(C(O)CN2CCN(c3ccc(Cl)cc3)CC2)ccc1O.O (stereo not drawn) [Compound 5, monohydrochloride, monohydrate] , the logged Kb turned out to be 676

The origin of these recorded values is patent US4255575A.
